Data provenance is paper PMC10447463.

Procedure Text: β-sheet content by ATR-FT-IR
Assay type: physicochemical
Assay Context: ATR-FT-IR
Protocol: For ATR FT–IR spectroscopy measurements, 200 µL of the respective 1 mg/mL PNF solution was lyophilized and the resulting powder used for measurement. All spectra were recorded on a Bruker Tensor 27 spectrometer with a diamond crystal as ATR element (PIKE MiracleTM, spectral resolution 2 cm^-1). Every sample was measured with 64 scans. Data were analyzed with OriginLab software and calculation of β–sheet content was conducted according to a previous report. TEM. […]
Measured Attribute: FTIR ß-sheet content/ % (%)
Provide the reading as a plain figure in %.

RGDSKIKIQIC [TM113 / RC11] = 39

Measured FTIR ß-sheet content/ % of CRFRFQF [CN10] : 39.77

Reported FTIR ß-sheet content/ % ( KIKIQINM [JGB2] ) = 41

The recorded FTIR ß-sheet content/ % for HIHIQIC [CN12] is 48.25

The reported value for HHHHKIKIKIKIYYYY [TM6] in terms of FTIR ß-sheet content/ % is 0

# FTIR ß-sheet content/ % of RGDKIKIQINM [MG8a / CN17] = 45.52

Please fill in: FTIR ß-sheet content/ % reported for CKIKIQI [MG3b] = 53

Looking up CEIEIQINMWQ [TM143] , I found its FTIR ß-sheet content/ % recorded as 49.9

Summary for this substance, CKFKFQFNM [BL3] : FTIR ß-sheet content/ % is 41

Entry RGECKFKFQF [CN16] , FTIR ß-sheet content/ % reported as 46.18

Recorded FTIR ß-sheet content/ % (substance MKFKFQF [DF5 / CK16] ): 21.97

Just so you know, measured FTIR ß-sheet content/ % for RLRLTLC [CN13] came out at 20.69

Notebook: CSISIQI [TM141] , FTIR ß-sheet content/ % read as 58.57
